Consider the following molecules and their measured pIC50 readings.
# Test system: HCT116 MTAP null cells
# protocol.description: HCT116 MTAP null cell line proliferation (CellTiter-Glo cell viability, 6 days)
# Type: cell-based
# condition.set: HCT116-MTAP null, 144 h, HCT116 MTAP null cells, 6 days of treatment, CellTiter-Glo cell viability; read-out: HCT-116 MTAP null IC50
The meaning of pIC50 here: minus log10 of the concentration in molar units.

Nc1nc2cnc(C(=S)N3CCOC[C@@H]3c3ccc(C(F)(F)F)cc3)cc2c2c1COC2; 6.40
CC1(C)CN(C(=O)c2cc3c4c(c(N)nc3cc2F)COC4)C[C@@H]1c1ccc(C(F)(F)F)cc1 (single isomer, unassigned); 7.77
Cn1ncc2c(N)nc3cnc(C(=O)N4CCOC[C@@H]4c4ccc(C(F)(F)C(F)(F)F)cc4)cc3c21; 7.82
Cn1ncc2c(N)nc3cc(F)c(C(=O)N4CCC(c5ccc(C(F)(F)F)cn5)C4)cc3c21 (racemic); 7.25
Nc1nc2cnc(C(=O)N3CCOC[C@@H]3c3ccc(OC(F)(F)F)cc3)cc2c2c1COC2; 7.21

Kindly consider the entry below.
So for C[C@@H]1COC[C@H](c2ccc(C(F)(F)F)cn2)N1C(=O)c1cc2c(cn1)nc(N)c1cnn(C)c12 , the logged pIC50 turned out to be 7.74

====

# System: HCT116 MTAP null cells
# protocol.description: HCT116 MTAP null cell line proliferation (CellTiter-Glo cell viability, 6 days)
# Assay type: cell-based
# condition.set: HCT116-MTAP null, 144 h, HCT116 MTAP null cells, 6 days of treatment, CellTiter-Glo cell viability; read-out: HCT-116 MTAP null IC50
pIC50: −log10 of the molar value.
assay.endpoint: pIC50

Cc1ccc([C@@H]2COCCN2C(=O)c2ccc3nc(N)c4c(c3c2)COC4)cn1 (single isomer, unassigned); < 6.00

Consider N#Cc1ccc([C@@H]2COCCN2C(=O)c2ccc3nc(N)c4c(c3c2)COC4)nc1 (single isomer, unassigned) . Its measured pIC50 is < 6.00

The recorded pIC50 for entry C[C@@H]1CN(C(=O)c2ccc3nc(N)c4c(c3c2)COC4)[C@H](c2ccc(C(F)(F)F)cn2)CO1 (single isomer, unassigned) equals < 6.00

====

# Tested on: HCT116 MTAP null cells
# protocol.description: HCT116 MTAP null cell line proliferation (CellTiter-Glo cell viability, 6 days)
# Assay type: cell-based
# condition.set: HCT116-MTAP null, 144 h, HCT116 MTAP null cells, 6 days of treatment, CellTiter-Glo cell viability; read-out: HCT-116 MTAP null IC50
Could you mark each record yes if its IC50 falls strictly under 200 nM, and no if it equals or exceeds it?

Cn1ncc2c(N)nc3cc(C(F)(F)F)c(C(=O)N4CC[C@H](c5ccc(C(F)(F)F)cc5)C4)cc3c21; no
Cn1ncc2c3cc(C(=O)N4CCOC[C@@H]4c4ccc(S(F)(F)(F)(F)F)cc4)c(F)cc3nc(N)c21; yes
Cn1ncc2c(N)nc3cc(Cl)c(C(=O)N4C[C@@H](CO)[C@H](c5ccc(C(F)(F)F)cc5F)C4)cc3c21; yes
Cn1ncc2c(N)nc3cc(F)c(C(=O)N4CC[C@@H](Oc5ccc(C(F)(F)F)cc5)C4)cc3c21 (single isomer, unassigned); no
C[C@H]1COC[C@@H](c2ccc(C(F)(F)F)cc2F)N1C(=O)c1cc2c3c(c(N)nc2cn1)COC3 (racemic); yes

Okay, now this molecule:
Problem: For the molecule Nc1nc2ccc(C(=O)N3CCOC[C@@H]3c3ccc(Cl)cc3)cc2c2c1COC2 (single isomer, unassigned) , is IC50 under 200 nM?
yes

Reference source: patent US11845760B2
